- experimentalProtocol: Cytotoxicity assay on MRC-5 fibroblasts
- Type: cell-based
- appliedConditions: human, MRC-5SV2 cells
readoutType: CC50 at 72 h (µM)
State just the number; it will be interpreted in µM.

CC50 at 72 h measured on "CC[n+]1c(-c2ccccc2)c2cc(N/N=N/c3cccc(C(=N)N)c3)ccc2c2ccc(N)cc21" = 22.7

Data credit: paper PMC9111543
